Source listed as paper PMC12040169.

# PROTOCOL DESCRIPTION: in vitro
# CONDITION DESCRIPTION: human, hela cells, % viability
READOUT KIND: viability at 28.5 h, 10 µM (%)
Field: numeric (%). Do not append units.

// query viability at 28.5 h, 10 µM value for entry "Cc1ccc(OCC(=O)Nc2cccc3nsnc23)c(C)c1"
102

And "Cc1cc(COC(=O)N2CCC(CO)CC2)cc(C)n1" ?
91

How about this compound: "Nc1nc(=O)n([C@H]2C[C@@H](O)[C@@H](CO)O2)cc1I"
90.4

Try this compound too: "COc1ncccc1C(=O)Nc1ccc(C)nc1C"
90.6

# iterate: "CN1CCN(C(=O)CN(c2cccc([N+](=O)[O-])c2)S(=O)(=O)c2ccccc2)CC1"
87.6

Same for "Cc1ccc(Nc2nc(N)nc(CN3CCCC3)n2)cc1"
97.7

Check "O=C(c1ccccc1)c1ccc(S(=O)(=O)N2CCCN(Cc3cc(F)c(F)c(F)c3)CC2)cc1" too.
91.2

Repeat with "CC[C@H]1CN(C(=O)c2cccnc2)CC[C@H]1CC(=O)N1CCC(C(N)=O)CC1"
104

***
Name the recorded viability at 28.5 h, 10 µM for "CS(=O)(=O)N1CCN(c2ccc(NC(=O)c3ccc(-c4cccc([N+](=O)[O-])c4)o3)cc2)CC1" .
98.6

Try the compound "CN(C)Cc1cc(C[C@@H]2C[C@H](NC(=O)c3ccnc(Cl)c3)C2(C)C)no1"
89.6

Try "CN1C[C@H](CNC(=O)Nc2ccc(F)c(F)c2)[C@@H](c2ccc(Cl)c(Cl)c2)C1" next.
95.7

====

# PROTOCOL DESCRIPTION: in vitro
# CONDITION DESCRIPTION: human, hela cells, % viability
READOUT KIND: viability at 28.5 h, 10 µM

Recorded results for 9 compounds are shown here.
Given the compound "COc1ccc(C(=O)Nc2nnc[nH]2)cc1" , what is its reported viability at 28.5 h, 10 µM?
90.8%

Try "O=C(Nc1ccc2[nH]ccc2c1)c1c(F)ccc(Cl)c1F" next.
78.6%

And then "CCN(CC)C(=O)CN1CCC(c2ccc(F)cc2)CC1" , what is it?
108%

Queued: CCCCC(=O)NC(c1ccc(Cl)cc1)c1cc([N+](=O)[O-])c2cccnc2c1O (stereo not shown)
90.1%

Lookup "COc1ccnc(Cn2ncc(N3CCCC3)cc2=O)c1OC"
82.7%

Input "NS(=O)(=O)c1ccc(CNC(=S)NC2CCCC2)cc1"
97.8%

Similarly, "O=C(CN1C(=O)COc2ccc(Cl)cc21)Nc1cccc(C(=O)O)c1" ?
93.1%

Now the same for C=CCNC(CC(=O)Nc1ccc(C)c(Cl)c1)C(=O)O (stereo not shown)
92.8%

What about this compound? "FC(F)Oc1ccc(-c2ccnc(S)n2)cc1"
91.9%

Attention now shifts to the item below.
Look up viability at 28.5 h, 10 µM: "O=C1c2ccc(Oc3ccc4c(c3)C(=O)N(c3ccccn3)C4=O)cc2C(=O)N1c1ccccn1"
99.3%

====

# PROTOCOL DESCRIPTION: in vitro
# CONDITION DESCRIPTION: human, hela cells, % viability
READOUT KIND: viability at 28.5 h, 10 µM

Examples with their reported viability at 28.5 h, 10 µM follow.
Requested read-out: viability at 28.5 h, 10 µM. Entry: "O=C(Cn1nnc(-c2ccccc2)n1)Nc1ccccc1C(=O)O"
103%

One more compound: Cc1c(-c2cc(C(=O)NC(C)C3CC4CCC3C4)on2)cnn1C (stereo not drawn)
92.8%

Quick one: CO[C@H]1CC[C@H](C(=O)NC(c2ccccc2)c2nccn2C)CC1 (stereo partly drawn)
93.8%

Others:
For the compound shown here, "CC(=O)Oc1cccc(N2C(=O)c3ccc(Oc4cccc(N)c4)cc3C2=O)c1" , give the reported viability at 28.5 h, 10 µM.
96.4%

====

Item-by-item account of viability at 28.5 h, 10 µM
# PROTOCOL DESCRIPTION: in vitro
# CONDITION DESCRIPTION: human, hela cells, % viability
Report the figure along with its unit, number first.

Reference set (3 entries):
Fill in: viability at 28.5 h, 10 µM of "Cc1cc(C)nc(NS(=O)(=O)c2ccc(NC(=O)N3c4ccccc4Sc4ccccc43)cc2)n1" is ___
101%

// next record "COC(=O)c1ccccc1NC(=O)CSc1nc(C)cc(C)n1"
96.2%

Another compound: O=C1CC(c2ccccc2F)C2=C(COC2=O)N1 (stereo not shown)
92%

Next:
Quick one: viability at 28.5 h, 10 µM for "Cc1ccccc1CSCC(=O)N1CCN(c2ccccc2)CC1" ?
89%

Check Cc1ccc(CNC(=O)Cn2nnc(-c3ccc(CN4CCC(S(C)(=O)=O)C4)cc3)n2)cc1 (stereo not shown) [CBK155407T] too.
91.7%

Request: CCC1CN(C(=O)Cn2cnc3ccc(F)cc3c2=O)CCO1 (stereo not shown)
92.4%

Note, next up: "CC(=O)NCc1cccc(-c2cc(C(=O)O)cnc2-c2ccc(Cl)cc2)c1"
90.9%

Okay, and "CC(C)Oc1ncccc1OCCO" ?
112%

Also need O=C(NC(Cc1cnc[nH]1)C(=O)O)c1ccccc1 (stereo not shown) , thanks.
102%

Continue with "O=CN1CCc2c([nH]c3ccccc23)C12CCN(CC1CC1)CC2"
91.8%

====

# PROTOCOL DESCRIPTION: in vitro
# CONDITION DESCRIPTION: human, hela cells, % viability
Recorded measurements of viability at 28.5 h, 10 µM, one per entry
Entry rule: numbers only, all in %.

viability at 28.5 h, 10 µM for "CN(C)c1ccc2cccc(O)c2n1" ?
93.9

And then Cc1ccc(OC2(C(=O)N3CCCC3C(F)(F)F)CCNCC2)cc1 (stereo not drawn) , what is it?
82.5

Consider next the molecule CC(C)(C)c1ccc(-c2nc(Nc3cccc(C(=O)O)c3)c3ccccc3n2)cc1 [CBK265229C] in the same way.
96.6

Next:
Recorded viability at 28.5 h, 10 µM of "Cc1[nH]c2ccccc2c1/C=C1/C(=N)N2C(SCc3ccccc3)=NSC2=NC1=O" , please.
90

How about this molecule: "CCCC(=O)N[C@@H](C)Cn1c(C(F)(F)F)cc2cccnc21"
92.7

Next: CC(C)CC(NC(=O)Cc1cccc(O)c1)c1nnc2n1CCNCC2 (stereo not drawn)
98.3

====

# Tested on: HeLa
# CONDITION DESCRIPTION: bulk resorufin, single well, 28.5 h, 10 µM, Bulk resorufin fluorescence
READOUT KIND: % viability (%)
Entry rule: numbers only, all in %.

May I ask what % viability has been recorded for "C=CCNC(=O)[C@@H]1C=CCN1C(=O)c1ccc(OC)cc1" ?
76.8

Another: CC(C(=O)Nc1cncc(OC2CCNCC2)n1)c1ccccc1 (stereo not drawn) [CBK026733T]
110

Try this molecule too: C[C@@H]1CN2CCCC2CN1Cc1ccc(F)cc1F (stereo partly drawn)
97.8

Follow-up entry: O=C(O)C1Cc2c([nH]c3ccccc23)C(c2ccc(Cl)cc2Cl)N1 (stereo not drawn)
96.2

Param item: "COC(=O)[C@@H]1Cc2c([nH]c3ccccc23)[C@H]2C[C@H](NCCO)C[C@@H](c3ccccc3)N21"
97.8

Next:
# input molecule: "O=C(CN1C(=O)[C@H]2CCCN2C(=O)c2ccccc21)Nc1ccccc1-c1ccccc1" ; wanted: its % viability
94.1

Note, next up: "O=C(NC1CCCCC1)[C@H]1C=CCN1C(=O)c1ccccc1F"
98

Quick one: "CCCNC(=O)NS(=O)(=O)c1ccc(C)cc1"
90.2

Same question for "NC(=O)CSc1nnc(-c2ccc(Cl)cc2)o1" please.
89.3

====

Overview of recorded viability at 28.5 h, 10 µM for various molecules
# PROTOCOL DESCRIPTION: in vitro
# CONDITION DESCRIPTION: human, hela cells, % viability
Output spec: scalar in %, unitless text.

Fill in: viability at 28.5 h, 10 µM of "Nc1nnc(SCCN2C(=O)c3ccccc3S2(=O)=O)s1" is ___
88.6

The record that follows has no viability at 28.5 h, 10 µM shown yet.
# viability at 28.5 h, 10 µM lookup, item "CN1CCN(c2cc(-c3ccccc3N(C)C)nc3ccnn23)CC1"
108

====

Measured viability at 28.5 h, 10 µM values are reported for all entries that follow.
# PROTOCOL DESCRIPTION: in vitro
# CONDITION DESCRIPTION: human, hela cells, % viability
Numbers only; they are read as %.

Consider the following illustrative entries.
Return reported viability at 28.5 h, 10 µM; argument: N=c1n(CCN2CCCCC2)c2ccccc2n1CC(O)COc1ccccc1 (stereo not shown) [CBK262451C]
88.5

// same read-out, input: "OCc1cc(CC2(NCc3cccc4c3OCO4)COC2)no1"
90.6

Request: "CC(=O)N1CCN(C(=O)c2cnc(-c3ccc(Cl)cc3)c(-c3ccco3)c2)CC1"
98.1

Try this molecule next: "Cc1cc(C(=O)NCCn2ccnc2C)nc2ccccc12"
101

Same for "O=C(Cc1csc(-c2ccc(Cl)cc2)n1)Nc1cccnc1"
101

***
So what's the measured viability at 28.5 h, 10 µM for this one? "c1ccc(Cn2cc(-c3cnc(N4CCOCC4)c4nccn34)cn2)cc1"
79.7
